experimentalTarget: Human CD40 (human, UniProt P25942 21-277)
Sequence (P25942 21-277 limits assumed): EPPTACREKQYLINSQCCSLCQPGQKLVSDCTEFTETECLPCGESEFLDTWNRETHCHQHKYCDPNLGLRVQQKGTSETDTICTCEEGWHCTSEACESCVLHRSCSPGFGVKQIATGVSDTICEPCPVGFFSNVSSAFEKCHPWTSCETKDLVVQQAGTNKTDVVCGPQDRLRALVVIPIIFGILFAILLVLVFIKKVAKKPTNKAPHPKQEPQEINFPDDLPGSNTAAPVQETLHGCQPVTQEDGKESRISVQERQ
assayMethodText: cell-based or functional assay
metricName: Antagonist: Jurkat/Reporter assay IC50

binder	metricName	valueReported
huAb1v5 (antibody, V domains shown) VH: EVQLVESGGGLVKPGGSLRLSCAASGFTFSDYGMNWVRQAPGKGLEWIAYISSGRSNIYYADTVKGRFTISRDNAKNSLYLQMNSLRAEDTAVYYCARSWGYFDVWGQGTTVTVSS VL: DIVMTQSPDSLAVSLGERATINCKSSQSLLNTGNQKNYLTWFQQKPGQPPKLLIYWASTRESGVPDRFSGSGSGTDFTLTISSLQAEDVAVYYCQNDYTYPLTFGQGTKLEIK	Antagonist: Jurkat/Reporter assay IC50	> 100 nM
